# testedTarget: A2AR (Homo sapiens, UniProt P29274)
# Sequence (P29274 whole entry): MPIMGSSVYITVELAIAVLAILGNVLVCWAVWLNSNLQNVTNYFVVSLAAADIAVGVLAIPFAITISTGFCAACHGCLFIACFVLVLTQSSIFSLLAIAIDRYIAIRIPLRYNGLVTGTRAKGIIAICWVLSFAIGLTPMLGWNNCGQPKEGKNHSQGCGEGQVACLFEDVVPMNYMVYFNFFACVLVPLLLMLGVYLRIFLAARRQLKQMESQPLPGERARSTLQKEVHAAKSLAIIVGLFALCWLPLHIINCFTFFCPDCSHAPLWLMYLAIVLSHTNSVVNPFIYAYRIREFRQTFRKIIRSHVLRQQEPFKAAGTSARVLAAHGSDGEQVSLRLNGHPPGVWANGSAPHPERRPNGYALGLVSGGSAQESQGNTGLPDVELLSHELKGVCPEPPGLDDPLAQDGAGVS
# procedureDetails: A2AR cell functional cAMP assays (allosteric and antagonistic)
# measurementParameters: NECA titration, IgG titration (NECA 0.5 uM), IgG titration (NECA 10 uM)

{"molecule": "A2A-19: A2AR variant; VH CDR1-3 SEQ ID NO 24/113/202 (antibody, V domains shown) VH: EVQLVESGGGLVKPGGSLRLSCAASGFTFSGYAMNWVRQAPGKGLEWVSTISGSGASTYYADSVKGRFTISRDNSKNTLYLQMNSLRAEDTAVYYCAAARGYKRWRLGRRYDYWGQGTLVTVSS VL: DIQMTQSPSSLSASVGDRVTITCRASQSISDYLNWYQQKPGKAPKLLIYTASTLQSGVPSRFSGSGSGTDFTLTISSLQPEDFATYYCEQSYSTPWTFGGGTKLEIK", "function in cAMP assays": "improved function"}
{"molecule": "A2A-26: A2AR variant; VH CDR1-3 SEQ ID NO 31/120/209 (antibody, V domains shown) VH: EVQLLESGGGLVQPGGSLRLSCAASGFTFSTYAMGWVRQAPGKGLEWVSGISGSAGSTYYADSVKGRFTISRDNSKNTLYLQMNSLRAEDTAVYYCAAARGHWRWRLGRRYDYWGQGTLVTVSS VL: DIQMTQSPSSLSASVGDRVTITCRASQTISRYLNWYQQKPGKAPKLLIYSASTLQSGVPSRFSGSGSGTDFTLTISSLQPEDFATYYCQQSYSTPHTFGGGTKVEIK", "function in cAMP assays": "improved function"}
{"molecule": "A2A-17: A2AR variant; VH CDR1-3 SEQ ID NO 22/111/200 (antibody, V domains shown) VH: EVQLVESGGGLVKPGGSLRLSCAASGFNIGNTYMHWFRQAPGKGLEWVGVINPNYGTTRYNDSVKGRFTISRDNSKNTLYLQMNSLRAEDTAVYYCARDYGSSSFDYWGQGTLVTVSS VL: DIQMTQSPSSLSASVGDRVTITCKASQSVRNDVVWYQQKPGKAPKLLIYRGNTLRPGVPSRFSGSGSGTDFTLTISSLQPEDFATYYCQQYYGIPLTFGQGTKLEIK", "function in cAMP assays": "improved function"}

Attribution: patent US12202905B2
